The reader will find reported remaining at 24 h values listed item by item below.
# protocol_summary: Stability of the compound in mouse plasma assessed as parent compound remaining after 24 hrs
# Type: ADME, cell-free
# reported_conditions: read-out: Stabilty
Starred links: 1 amine or outer side, 2 acyl side, 3 side chain; linkers in the order of their positions; H or OH if unused. Non-standard residues stand in square brackets, D forms with d. Residues, ends and D or L forms follow the SMILES beside them. *: point of attachment. X6 = C[C@H](CO[C@H](CC1C[C@H]2CC[C@@H](C1)C2)[C@@H](C)C(=O)[*:2])N[*:1]; Cyclobutyl(trans-3-NH2) = N[C@H]1C[C@H](*)C1; Gly(cHept) = N[C@H](C(=O)O)C1CCCCCC1; NMeNva = CCC[C@H](NC)C(=O)O; Dap = NC[C@H](N)C(=O)O

{"molecule": "CCCCCC[C@H]1OCCCNC(=O)[C@H]([C@H](C)O)NC(=O)[C@H](CN)NC(=O)[C@H](C2CCCCC2)NC(=O)[C@H](CC(C)C)N(C)C(=O)[C@@H]1C", "remaining at 24 h": "101%"}
{"molecule": "CCCCCC[C@H]1OC(=O)CNC(=O)[C@H]([C@H](C)O)NC(=O)[C@H](CO)NC(=O)[C@H]([C@H](C)CC)NC(=O)[C@H](CC(C)C)N(C)C(=O)[C@@H]1C", "remaining at 24 h": "2%"}
{"molecule": "CCC[C@H]1C(=O)N[C@@H](C2CCCCCC2)C(=O)N[C@@H](CN)C(=O)N[C@@H](CO[C@H]2C[C@H](N)C2)C(=O)N[C@H](C)CO[C@H](CC2C[C@H]3CC[C@@H](C2)C3)[C@@H](C)C(=O)N1C (stereo partly drawn) (cyclo([Dap]S(Cyclobutyl(trans-3-NH2))[X6][NMeNva][Gly(cHept)]))", "remaining at 24 h": "95%"}

(Q) Return remaining at 24 h for the following molecule: CCCCCC[C@H]1OC[C@@H](C)NC(=O)[C@H]([C@H](C)O)NC(=O)[C@H](CN)NC(=O)[C@H](C2CCCCC2)NC(=O)[C@H](CC(C)C)N(C)C(=O)[C@@H]1C
(A) 94%
